- Test system: Mus musculus
- ASSAY OVERVIEW: Antitumor activity in CF1 mice bearing Ehrlich ascites carcinoma measured as ascites volume at 5 mg/kg
- Format: functional
Classes (ascites volume): label 0: < 0.5 ml mouse-1; label 1: ≥ 0.5 ml mouse-1 and < 0.9 ml mouse-1; label 2: ≥ 0.9 ml mouse-1

• Cc1noc2c1C(=O)C(Cl)=C(Cl)C2=O = label 0
• CC(=O)NC1=C(Cl)C(=O)c2c(cnn2C(C)=O)C1=O = label 0
• Cn1ncc2c1C(=O)C(Cl)=C(N1CC1)C2=O = label 2
• COC1=C(N2CC2)C(=O)c2cnn(C)c2C1=O = label 1
• CC(=O)NC1=C(Cl)C(=O)c2[nH]ncc2C1=O = label 0
• CC(=O)NC1=C(Cl)C(=O)c2c(cnn2C)C1=O = label 1
• O=C1C(N2CC2)=C(Cl)C(=O)c2n[nH]cc21 = label 0
• O=C1C(Cl)=C(Cl)C(=O)c2[nH]ncc21 = label 0
• Cn1cc2c(n1)C(=O)C(Cl)=C(N1CC1)C2=O = label 1
• Cn1ncc2c1C(=O)C(Cl)=C(N)C2=O = label 2
• NC1=C(Cl)C(=O)c2[nH]ncc2C1=O = label 2

---

- System: Mus musculus
- ASSAY OVERVIEW: Antitumor activity in CF1 mice bearing Ehrlich ascites carcinoma measured as ascites volume at 8 mg/kg
- Format: functional
List of ascites volume values.
EXPERIMENTAL ENDPOINT: ascites volume (ml mouse-1)

- CC(=O)NC1=C(Cl)C(=O)c2[nH]ncc2C1=O: 1.8
- COC1=C(N2CC2)C(=O)c2cnn(C)c2C1=O: 0.32
- NC1=C(Cl)C(=O)c2[nH]ncc2C1=O: 3
- CC(=O)NC1=C(Cl)C(=O)c2c(cnn2C(C)=O)C1=O: 0.75
- CC(=O)NC1=C(Cl)C(=O)c2c(cnn2C)C1=O: 0.62
- CC(=O)NC1=C(N2CC2)C(=O)c2c(cnn2C)C1=O: 1.2
- Cn1ncc2c1C(=O)C(Cl)=C(N)C2=O: 1.9

---

- Test system: Mus musculus
- ASSAY OVERVIEW: Antitumor activity in CF1 mice bearing Ehrlich ascites carcinoma measured as ascites volume at 3 mg/kg
- Type: functional
EXPERIMENTAL ENDPOINT: ascites volume (ml mouse-1)

* CC(=O)NC1=C(Cl)C(=O)c2[nH]ncc2C1=O | 3.6
* CC(=O)NC1=C(Cl)C(=O)c2c(cnn2C(C)=O)C1=O | 2.9
* CC(=O)NC1=C(N2CC2)C(=O)c2c(cnn2C)C1=O | 3.2
* Cc1noc2c1C(=O)C(Cl)=C(Cl)C2=O | 0
* Cn1ncc2c1C(=O)C(Cl)=C(N)C2=O | 2
* CC(=O)NC1=C(Cl)C(=O)c2c(cnn2C)C1=O | 1.7

---

List of ascites volume values.
- Test system: Mus musculus
- ASSAY OVERVIEW: Antitumor activity in CF1 mice bearing Ehrlich ascites carcinoma measured as ascites volume at 1 mg/kg
- Format: functional
EXPERIMENTAL ENDPOINT: ascites volume (ml mouse-1)

• NC1=C(Cl)C(=O)c2[nH]ncc2C1=O = 2.1
• Cn1cc2c(n1)C(=O)C(Cl)=C(N1CC1)C2=O = 0.8
• COC1=C(N2CC2)C(=O)c2cnn(C)c2C1=O = 4.2
• CC(=O)NC1=C(Cl)C(=O)c2[nH]ncc2C1=O = 3.6
• Cn1ncc2c1C(=O)C(Cl)=C(N1CC1)C2=O = 2
• CCCSC1=C(N2CC2)C(=O)c2cnn(C)c2C1=O = 0.26
• O=C1C(N2CC2)=C(Cl)C(=O)c2n[nH]cc21 = 0.32

---

- System: Mus musculus
- ASSAY OVERVIEW: Antitumor activity in CF1 mice bearing Ehrlich ascites carcinoma measured as percent ascrit packed cell volume at 5 mg/kg
- Type: functional
Label rule met when packed cell volume is strictly below 30%; otherwise label rule not met.

* Cn1ncc2c1C(=O)C(Cl)=C(N1CC1)C2=O | rule not met
* O=C1C(N2CC2)=C(Cl)C(=O)c2n[nH]cc21 | rule not met
* CCCSC1=C(N2CC2)C(=O)c2cnn(C)c2C1=O | rule not met
* CC(=O)NC1=C(Cl)C(=O)c2[nH]ncc2C1=O | rule met
* CC(=O)NC1=C(Cl)C(=O)c2c(cnn2C)C1=O | rule met
* NC1=C(Cl)C(=O)c2[nH]ncc2C1=O | rule not met
* CC(=O)NC1=C(Cl)C(=O)c2c(cnn2C(C)=O)C1=O | rule met
* COC1=C(N2CC2)C(=O)c2cnn(C)c2C1=O | rule not met
* CC(=O)NC1=C(N2CC2)C(=O)c2c(cnn2C)C1=O | rule not met
* Cn1cc2c(n1)C(=O)C(Cl)=C(N1CC1)C2=O | rule not met
* O=C1C(Cl)=C(Cl)C(=O)c2[nH]ncc21 | rule met
* Cc1noc2c1C(=O)C(Cl)=C(Cl)C2=O | rule met
* Cn1ncc2c1C(=O)C(Cl)=C(N)C2=O | rule not met
